tested on: SKOV-3 (human ovarian); assay: SRB assay, in vitro antitumor effect against SKOV-3; type: cell-based; conditions: Homo sapiens; SK-OV-3, 48 hours; read-out: ED50 (the source's name)
ENDPOINT: log10 of IC50 (log10 of the value in µg/mL)

[[record]]
compound = "COc1cc(C)c(C)cc1NC(=S)N1CCN(c2cc(F)cc(F)c2)CC1 [Example 200]"
quantitative_readout = -0.28

[[record]]
compound = "COc1cc(OC)cc(N2CCN(C(=O)N(C)c3cc(C(C)O)c(C)nc3OC)CC2)c1 (centres unmarked) [Example 152]"
quantitative_readout = -0.43

[[record]]
compound = "COc1nc2ccccc2cc1NC(=O)N1CCN(c2cccc(Cl)c2)CC1 [Example 88]"
quantitative_readout = -1.37

[[record]]
compound = "CCC(C)(O)c1cc(N(C)C(=O)N2CCN(c3cc(C)cc(C)c3)CC2)c(OC)nc1C (centres unmarked) [Example 156]"
quantitative_readout = -1.00

[[record]]
compound = "C=Cc1cc(N(C)C(=O)N2CCN(c3cc(C)cc(C)c3)CC2)c(OC)nc1C [Example 159]"
quantitative_readout = -1.00

[[record]]
compound = "COc1cc(C)c(C)cc1NC(=O)N1CCN(c2cccc(Cl)c2)CC1 [Example 177]"
quantitative_readout = -0.41

[[record]]
compound = "COc1cc(OC)cc(N2CCN(C(=S)Nc3cc(C(C)=O)c(C)nc3OC)CC2)c1 [Example 53]"
quantitative_readout = -0.33

[[record]]
compound = "COc1nc(C)c(C)cc1NC(=S)N1CCN(c2cccc(O)c2)CC1 [Example 24]"
quantitative_readout = -2.22

[[record]]
compound = "COc1cc(OC)cc(N2CCN(C(=S)Nc3cc(C(C)O)c(C)nc3OC)CC2)c1 (centres unmarked) [Example 63]"
quantitative_readout = -1.00

[[record]]
compound = "CCc1cc(N(C)C(=O)N2CCN(c3cc(OC)cc(OC)c3)CC2)c(OC)nc1C [Example 143]"
quantitative_readout = -2.02

[[record]]
compound = "COc1nc2ccccc2cc1N(C)C(=O)N1CCN(c2cc(C)cc(C)c2)CC1 [Example 103]"
quantitative_readout = -0.34

[[record]]
compound = "COc1ccc(C)c(N2CCN(C(=O)N(Cc3ccccc3)c3cc(C)c(C)nc3OC)CC2)c1 [Example 142]"
quantitative_readout = -1.96

[[record]]
compound = "COc1ccc(C)c(N2CCN(C(=O)Nc3cc(C)c(C)cc3OC)CC2)c1 [Example 184]"
quantitative_readout = -0.47

[[record]]
compound = "CCN(C(=O)N1CCN(c2cc(OC)cc(OC)c2)CC1)c1cc2ccccc2nc1OC [Example 99]"
quantitative_readout = -0.39

[[record]]
compound = "COc1cc(OC)cc(N2CCN(C(=O)N(C)c3cc(C)c(C)cc3OC)CC2)c1 [Example 190]"
quantitative_readout = -2.10

[[record]]
compound = "COc1cc(C)c(C)cc1NC(=S)N1CCN(c2cc(Cl)cc(Cl)c2)CC1 [Example 201]"
quantitative_readout = -1.28

[[record]]
compound = "COc1nc(C)c(C(C)O)cc1NC(=O)N1CCN(c2cc(C)cc(C)c2)CC1 (centres unmarked) [Example 57]"
quantitative_readout = -0.82


The measured values listed here are drawn from patent US6028195A.
